tested on: Pseudomonas aeruginosa; test: Antimicrobial activity against Pseudomonas aeruginosa MTCC 2453 incubated for 24 hrs by well diffusion assay; format: functional; settings: MTCC 2453, 24 h
# MIC annotations

Observe how each entry below is paired with its result.
{"columns": ["compound", "MIC"],
 "data": [
  ["CCOC(=O)C1=C(C(=O)OCC)[C@@H](c2cc(O)ccc2O)Nc2c1c1ccccc1oc2=O", "> 100 µg/mL"],
  ["O=C(O)c1cn(C2CC2)c2cc(N3CCNCC3)c(F)cc2c1=O [CIPROFLOXACIN]", "0.58 µg/mL"],
  ["O=c1oc2ccccc2c2c1N[C@H](c1ccccc1)[C@H]1CCCO[C@@H]21", "> 100 µg/mL"],
  ["O=c1oc2ccccc2c2c1N[C@H](c1ccc(Cl)cc1)[C@H]1CCCO[C@@H]21", "> 100 µg/mL"]
]}

The compound identified as `COc1cc(OC)cc([C@@H]2C[C@@H](c3ccc4ccccc4c3)c3c(c(=O)oc4ccccc34)N2)c1` registered its MIC at > 100 µg/mL

Short answer for `CCOc1ccc([C@H]2Nc3c(c4ccccc4oc3=O)[C@@H]3OCCC[C@H]23)cc1` : MIC was > 100 µg/mL

Note to self: MIC recorded for `CC(C)OC(=O)N1c2c(c(=O)oc3ccccc23)N[C@H](c2ccc(O)c(Cl)c2)N1C(=O)OC(C)C` was > 100 µg/mL

====

Recorded MIC by entry
system: Raoultella planticola; experiment: Antimicrobial activity against Klebsiella planticola MTCC 530 incubated for 24 hrs by well diffusion assay; format: functional; settings: MTCC 530, 24 h

Consider the worked cases shown below.
{"columns": ["compound", "MIC"],
 "data": [
  ["O=c1oc2ccccc2c2c1N[C@H](c1ccccc1)[C@H]1CCCO[C@@H]21", "> 100 µg/mL"],
  ["CCOc1ccc([C@H]2Nc3c(c4ccccc4oc3=O)[C@@H]3OCCC[C@H]23)cc1", "> 100 µg/mL"],
  ["O=c1oc2ccccc2c2c1N[C@H](c1ccc([N+](=O)[O-])cc1)[C@H]1CCCO[C@@H]21", "> 100 µg/mL"],
  ["CC(C)OC(=O)N1c2c(c(=O)oc3ccccc23)N[C@H](c2ccc([N+](=O)[O-])cc2)N1C(=O)OC(C)C", "> 100 µg/mL"],
  ["COc1cc(OC)cc([C@@H]2C[C@@H](c3ccc4ccccc4c3)c3c(c(=O)oc4ccccc34)N2)c1", "> 100 µg/mL"]
]}

Field MIC (entry `O=c1oc2ccccc2c2c1N[C@H](c1ccc(F)cc1)[C@H]1CCCO[C@@H]21` ) reads > 100 µg/mL

Short answer for `CC(C)OC(=O)N1c2c(c(=O)oc3ccccc23)N[C@H](c2ccc(C(F)(F)F)cc2)N1C(=O)OC(C)C` : MIC was > 100 µg/mL

Reported MIC of `CC(C)OC(=O)N1c2c(c(=O)oc3ccccc23)N[C@H](c2ccc(O)c(Cl)c2)N1C(=O)OC(C)C` : > 100 µg/mL

Input `CCOC(=O)C1=C(C(=O)OCC)[C@@H](c2ccc(O)c(Cl)c2)Nc2c1c1ccccc1oc2=O` . Output MIC: > 100 µg/mL

# MIC (compound: O=C(O)c1cn(C2CC2)c2cc(N3CCNCC3)c(F)cc2c1=O [CIPROFLOXACIN] ) is 0.58 µg/mL

The reported MIC of the compound `CC(C)OC(=O)N1c2c(c(=O)oc3ccccc23)N[C@H](c2ccc(C#N)cc2)N1C(=O)OC(C)C` was > 100 µg/mL

Data point: `CCOC(=O)C1=C(C(=O)OCC)[C@@H](c2cc(OC)ccc2O)Nc2c1c1ccccc1oc2=O` ; MIC = > 100 µg/mL

The compound identified as `Nc1cc2ccccc2oc1=O` registered its MIC at > 100 µg/mL
